Reference source: ChEMBL document CHEMBL2218924

Target: Protein kinase C zeta type (Homo sapiens) (UniProt Q05513)
Sequence (whole entry): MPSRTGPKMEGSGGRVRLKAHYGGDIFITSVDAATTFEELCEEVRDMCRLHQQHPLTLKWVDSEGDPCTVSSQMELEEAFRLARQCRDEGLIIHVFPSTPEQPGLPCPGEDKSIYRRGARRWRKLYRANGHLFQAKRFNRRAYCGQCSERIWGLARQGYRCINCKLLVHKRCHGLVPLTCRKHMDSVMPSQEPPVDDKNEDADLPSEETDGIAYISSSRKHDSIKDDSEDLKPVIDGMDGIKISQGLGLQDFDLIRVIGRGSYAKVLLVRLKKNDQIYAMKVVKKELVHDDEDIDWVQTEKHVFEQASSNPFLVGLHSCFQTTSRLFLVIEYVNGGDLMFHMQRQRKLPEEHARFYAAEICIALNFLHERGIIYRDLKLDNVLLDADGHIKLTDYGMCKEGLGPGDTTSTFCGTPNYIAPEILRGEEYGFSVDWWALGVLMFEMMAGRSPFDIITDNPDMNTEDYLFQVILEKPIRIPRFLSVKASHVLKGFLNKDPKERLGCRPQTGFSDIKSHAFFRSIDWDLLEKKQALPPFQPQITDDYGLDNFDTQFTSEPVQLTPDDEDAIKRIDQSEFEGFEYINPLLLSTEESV
Settings: at 1 µM
assay readout: residual activity (%)
Give a bare numeral; the unit % is implied.

Q: What does the data say about its residual activity? Entry: COc1ccc(OC)c2c(=S)c3ccccc3[nH]c12
A: 104

***
Q: What does the data say about its residual activity? Entry: CC(=O)O/N=C1\C(=C2\C(=O)Nc3cc(Br)ccc32)Nc2ccccc21
A: 108

Q: What does the data say about its residual activity? Entry: COc1ccc(S(=O)(=O)N(CCO)c2ccccc2CN(C)C/C=C/c2ccc(Cl)cc2)cc1
A: 111

Q: What does the data say about its residual activity? Entry: CCC(=O)Nc1ccc2ncnc(Nc3cccc(Br)c3)c2c1
A: 116

Q: What does the data say about its residual activity? Entry: Nc1nc(Nc2ccc(S(N)(=O)=O)cc2)nn1C(=S)Nc1c(F)cccc1F
A: 75

----------
Biological target: Myotonin-protein kinase (Homo sapiens)
Conditions: at 10 µM
assay readout: residual activity (%)
Give a bare numeral; the unit % is implied.

Would you please look over these solved cases?
Q: What does the data say about its residual activity? Entry: O=c1cc(-c2cccc3c2Sc2ccccc2S3)oc(N2CCOCC2)c1
A: 105

Q: What does the data say about its residual activity? Entry: Cc1cccc(-c2[nH]c(C(C)(C)C)nc2-c2ccc3c(c2)OCO3)n1
A: 143

Q: What does the data say about its residual activity? Entry: O=C(O)c1ccc2c3c1cccc3c(=O)n1c3ccccc3nc21
A: 83

Q: What does the data say about its residual activity? Entry: COc1cc2ncnc(N3CCN(C(=O)Nc4ccc(Oc5ccccc5)cc4)CC3)c2cc1OC
A: 142

# input for lookup
Q: What does the data say about its residual activity? Entry: CC(=O)O/N=C1\C(=C2\C(=O)Nc3cc(Br)ccc32)Nc2ccccc21
A: 89

----------
Target: Receptor-interacting serine/threonine-protein kinase 2 (Homo sapiens) (UniProt O43353);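 also: residual kinase activity of the enzyme remaining, given as percent of control, assayed in 8 mM MOPS pH 7.0 buffer with 0.2 mM EDTA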
Sequence (O43353 whole entry): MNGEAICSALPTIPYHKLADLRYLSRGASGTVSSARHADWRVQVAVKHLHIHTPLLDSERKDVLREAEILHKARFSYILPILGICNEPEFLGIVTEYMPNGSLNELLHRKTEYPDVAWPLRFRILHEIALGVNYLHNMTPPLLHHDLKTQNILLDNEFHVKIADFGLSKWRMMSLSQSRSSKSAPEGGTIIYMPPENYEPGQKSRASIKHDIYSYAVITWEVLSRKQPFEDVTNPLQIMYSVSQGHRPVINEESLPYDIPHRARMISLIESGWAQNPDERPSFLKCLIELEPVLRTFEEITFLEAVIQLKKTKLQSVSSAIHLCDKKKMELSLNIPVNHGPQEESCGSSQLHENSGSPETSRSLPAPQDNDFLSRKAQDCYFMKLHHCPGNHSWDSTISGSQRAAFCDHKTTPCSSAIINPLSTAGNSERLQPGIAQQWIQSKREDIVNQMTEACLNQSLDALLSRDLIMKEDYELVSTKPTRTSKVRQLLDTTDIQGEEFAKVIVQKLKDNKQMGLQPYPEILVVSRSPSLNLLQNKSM
Settings: at 10 µM
Description: Millipore: Percentage of residual kinase activity of RIPK2 at 10uM relative to control. Control inhibitor: Phosphoric acid* at 0.3uM. Buffer: 8 mM MOPS pH 7.0, 0.2 mM EDTA
Label y when residual activity < 80%; otherwise n.

Q: # strict comparison: is reported residual activity < 80%? input = CC(C)n1cnc2c(NCc3ccccc3)nc(NCCCO)nc21
A: y

Q: # strict comparison: is reported residual activity < 80%? input = CCC(=O)Nc1ccc2ncnc(Nc3cccc(Br)c3)c2c1
A: y

Q: # strict comparison: is reported residual activity < 80%? input = COc1cc2ncnc(Nc3ccc(O)c(Br)c3)c2cc1OC
A: y

Q: # strict comparison: is reported residual activity < 80%? input = CC(=O)O/N=C1\C(=C2\C(=O)Nc3cc(Br)ccc32)Nc2ccccc21
A: n

Q: # strict comparison: is reported residual activity < 80%? input = c1ccc2c(-c3ccncc3)c[nH]c2c1
A: y

***
Q: # strict comparison: is reported residual activity < 80%? input = N#Cc1cnc2cnc(NCc3cccnc3)cc2c1Nc1ccc(F)c(Cl)c1
A: n

Q: # strict comparison: is reported residual activity < 80%? input = Oc1n[nH]c2nnc(-c3c(-c4ccccc4)nn4ccccc34)cc12
A: n

Q: # strict comparison: is reported residual activity < 80%? input = Nc1ccc2ncnc(NCCc3ccc(Oc4ccccc4)cc3)c2c1
A: n

Q: # strict comparison: is reported residual activity < 80%? input = c1ccc(-c2n[nH]cc2-c2ccnc3ccccc23)nc1
A: y

Q: # strict comparison: is reported residual activity < 80%? input = Cc1cccc(-c2[nH]c(C(C)(C)C)nc2-c2ccc3c(c2)OCO3)n1
A: y

Q: # strict comparison: is reported residual activity < 80%? input = Cc1cc(Nc2nc(-c3ccccc3)nc3ccccc23)n[nH]1
A: y

Q: # strict comparison: is reported residual activity < 80%? input = N#CCCc1ccc2c(c1)-c1[nH]c3ccc([N+](=O)[O-])cc3c1CC(=O)N2
A: y

Q: # strict comparison: is reported residual activity < 80%? input = Oc1ccc(Nc2nc(-c3ccc(Cl)cc3)cs2)cc1
A: n

Q: # strict comparison: is reported residual activity < 80%? input = O=c1c2ccccc2[nH]c(=S)n1CCN1CCC(=C(c2ccc(F)cc2)c2ccc(F)cc2)CC1
A: n

Q: # strict comparison: is reported residual activity < 80%? input = Cc1nc2cc3nc(-c4cccs4)cnc3cc2n1C
A: y

Q: # strict comparison: is reported residual activity < 80%? input = CCN(CC)CCCCN1c2ccccc2Oc2ccc(Cl)cc21
A: n

Q: # strict comparison: is reported residual activity < 80%? input = CC(C)n1cnc2/c(=N/c3cccc(Cl)c3)nc(NCCO)[nH]c21
A: y

Q: # strict comparison: is reported residual activity < 80%? input = CNc1cc2c(Nc3cccc(Br)c3)ncnc2cn1
A: y

Q: # strict comparison: is reported residual activity < 80%? input = Cn1cnc2cc3c(Nc4cccc(Br)c4)ncnc3cc21
A: y
